- Assay Text: plasmodial surface anion channel blockers, osmotic lysis – cell-based, P. falciparum Indochina, OD700, 18 h, primary screen (AID 1157)
- Particulars: P. falciparum Indochina infected erythrocytes, osmotic lysis OD700, 18 h; higher = more signal, called active from +8 up or from −8 down
Property Measured: z-score
Respond using a number only.

# input Tell me the measured z-score of C=C(C)[C@@H]1CC=C(C(O)C2C=CC3C(=O)N(Cc4ccccc4)C(=O)C3N2n2cnnc2)CC1 (some centres undefined) , please.
# output -1.38

# input Tell me the measured z-score of O=C1OCC=C[C@H]2OC34C=CCN(CCN5CCOCC5)C(=O)[C@H]3N(CCCCCCO)C(=O)[C@@H]4[C@@H]12 (some centres undefined) , please.
# output 0.404

# input Tell me the measured z-score of COc1ccc(C#Cc2ccc3c(c2)[C@]2(C(=O)N3)[C@H](c3ccc(OCCO)cc3)N3[C@H](c4ccccc4)[C@H](c4ccccc4)OC(=O)[C@H]3[C@@H]2C(=O)Nc2nc3ccccc3s2)cc1 , please.
# output 1.94

# input Tell me the measured z-score of Cc1ccc(N2C(=O)c3ccccc3[C@@H](C(=O)NCC(C)C)[C@@H]2c2ccc(CO)cc2)nc1 , please.
# output 0.231

----------
- System: Fibrinogen (Alexa647-labelled)
- Assay Text: Alexa647-fibrinogen binding to printed small molecules – biochemical, small-molecule microarray, 635/667 nm fluorescence, artefact control for SMM control-protein annotation, profiling panel (AID 1131);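 note: z-score merges 667 nm fluorescence with per-spot signal-to-noise over triplicate slides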
- Particulars: fibrinogen-A647 binding fluorescence, higher = more signal
Assign t to entries whose composite z-score meets or exceeds 0.5; assign f to the rest.

# input Is it the case that [N-]=[N+]=NCc1ccccc1[C@@H]1OC(c2ccc(OCCCO)cc2)=N[C@]1(Cc1ccccc1N=[N+]=[N-])C(N)=O has composite z-score reaching or exceeding 0.5?
# output t

# input Is it the case that NC(=O)[C@@]1(CCS(=O)(=O)c2ccccc2)N=C(c2ccc(OCCCO)cc2)O[C@H]1c1ccccc1 has composite z-score reaching or exceeding 0.5?
# output t

# input Is it the case that CCCNC(=O)[C@@]1(C)c2ccccc2C(=O)N(C(C)C)[C@H]1c1ccc(CO)cc1 has composite z-score reaching or exceeding 0.5?
# output f

# input Is it the case that C=C(/C(=C/C[C@@H](OC(C)=O)c1ccc(CO)o1)c1cnc2ccccc2c1)C(C)C has composite z-score reaching or exceeding 0.5?
# output t

# input Is it the case that C[N+](C)(C)CCCCNC(=O)[C@H]1C[C@H]2C(=O)N3CCC[C@H]3C(=O)N2[C@H]1c1ccc(O)cc1 has composite z-score reaching or exceeding 0.5?
# output f

# input Is it the case that CC(C)NC(=O)[C@@]1(c2ccc([N+](=O)[O-])cc2)CC(=O)N(C(C)C)[C@@H]1c1ccc(CO)cc1 has composite z-score reaching or exceeding 0.5?
# output f

# input Is it the case that Cc1ccc(S[C@]2(C(=O)NCC(F)(F)F)CC(=O)N(C3Cc4ccccc4C3)[C@@H]2c2ccc(CO)cc2I)cc1 has composite z-score reaching or exceeding 0.5?
# output f

# input Is it the case that C=C(CCCC)C(=O)CC[C@H](OC(C)=O)c1ccc(CO)o1 has composite z-score reaching or exceeding 0.5?
# output f

# input Is it the case that [N-]=[N+]=NCc1ccccc1C[C@]1(C(=O)NCCN2CCOCC2)N=C(c2ccc(OCCCO)cc2)O[C@H]1c1ccccc1CN=[N+]=[N-] has composite z-score reaching or exceeding 0.5?
# output t

# input Is it the case that Cc1ccc(S[C@]2(C(=O)NCCN3CCOCC3)CC(=O)N(C3CCCCC3)[C@@H]2c2ccc(CO)cc2)cc1 has composite z-score reaching or exceeding 0.5?
# output t

# input Is it the case that CCCC[C@H]1C[C@@H]1[C@@H]1N(P(=O)(c2ccccc2)c2ccccc2)[C@](CO)(c2ccccc2)CC12CC2 has composite z-score reaching or exceeding 0.5?
# output t

# input Is it the case that CCOC(=O)C[C@H]1[C@H](OC(=O)c2ccccc2-c2ccccc2)[C@@H](NC(=O)c2ccc(-c3ccccc3)cc2)c2cc(OCCCO)ccc2N1C(=O)c1ccccc1 has composite z-score reaching or exceeding 0.5?
# output t

# input Is it the case that O=C(CS)NCCCCCCNC(=O)[C@H]1C[C@H]2C(=O)N3CCC[C@H]3C(=O)N2[C@H]1c1ccc(O)cc1 has composite z-score reaching or exceeding 0.5?
# output t

# input Is it the case that CCCCC(=O)N(Cc1ccccc1F)[C@@H]1CC(C(=O)NCCO)=C[C@H](Oc2c(I)cc(CO)cc2OC)[C@H]1O has composite z-score reaching or exceeding 0.5?
# output t

# input Is it the case that CCCC[C@@H]1C[C@H]1[C@@H](NC(=O)c1ccccc1)c1ccc(-c2ccccc2)cc1 has composite z-score reaching or exceeding 0.5?
# output f

# input Is it the case that Cc1ccccc1/C=C/C=O has composite z-score reaching or exceeding 0.5?
# output f
